# Measurement target: UniProtKB Q14994
# Protocol summary: Partial agonist activity at human CAR LBD (151 to 349 residues) expressed in HepG2 cells coexpressed with pGL5-luc luciferase measured after 1 to 4 hrs by LanthaScreen TR-FRET assay

{"columns": ["Test smiles", "EC50 [µM]"],
 "data": [
  ["CSc1nc(-c2cccc(C)c2)nc2ccccc12", 10.6]
]}

----------
Activity values by entry
# Measurement target: Nuclear receptor subfamily 1 group I member 3 (Homo sapiens, UniProt Q14994)
# Sequence (Q14994 whole entry): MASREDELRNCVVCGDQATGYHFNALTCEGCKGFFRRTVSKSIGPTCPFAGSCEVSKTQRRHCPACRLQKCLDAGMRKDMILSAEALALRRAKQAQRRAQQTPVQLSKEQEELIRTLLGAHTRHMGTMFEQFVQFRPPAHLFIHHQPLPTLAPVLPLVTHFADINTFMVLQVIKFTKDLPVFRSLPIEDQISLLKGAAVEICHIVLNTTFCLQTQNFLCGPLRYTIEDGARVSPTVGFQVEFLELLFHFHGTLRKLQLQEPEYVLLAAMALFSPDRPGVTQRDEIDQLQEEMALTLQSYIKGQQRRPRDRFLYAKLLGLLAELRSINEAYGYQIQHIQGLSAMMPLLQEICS
# Protocol summary: Activation of human CAR3 expressed in human HepG2 cells at 30 uM incubated for 24 hrs by dual luciferase gene reporter assay relative to CITCO
# Format: cell-based
# Conditions used: hepg2, 24 h

{"columns": ["Test smiles", "Measurement target", "Activity (%)"],
 "data": [
  ["Oc1nc(-c2ccc(F)cc2)nc2ccccc12", "Nuclear receptor subfamily 1 group I member 3 (Homo sapiens, UniProt Q14994)", 10],
  ["O=c1[nH]c(-c2ccc(Cl)c(Cl)c2)nc2ccccc12", "Nuclear receptor subfamily 1 group I member 3 (Homo sapiens, UniProt Q14994)", 9],
  ["COc1nc(-c2cccc(F)c2)nc2ccccc12", "Nuclear receptor subfamily 1 group I member 3 (Homo sapiens, UniProt Q14994)", 5],
  ["O=c1[nH]c(-c2ccc(Br)cc2)nc2ccccc12", "Nuclear receptor subfamily 1 group I member 3 (Homo sapiens, UniProt Q14994)", 12],
  ["Cc1cccc(-c2nc(O)c3ccccc3n2)c1", "Nuclear receptor subfamily 1 group I member 3 (Homo sapiens, UniProt Q14994)", 34],
  ["Cn1c(-c2ccc(OC(F)(F)F)cc2)nc2ccccc2c1=O", "Nuclear receptor subfamily 1 group I member 3 (Homo sapiens, UniProt Q14994)", 22],
  ["COc1ccc(-c2nc3ccccc3c(=O)[nH]2)cc1", "Nuclear receptor subfamily 1 group I member 3 (Homo sapiens, UniProt Q14994)", 33],
  ["CC(C)(C)c1ccc(-c2nc3ccccc3c(=S)[nH]2)cc1", "Nuclear receptor subfamily 1 group I member 3 (Homo sapiens, UniProt Q14994)", 9]
]}

----------
Activity values by entry
# Measurement target: Nuclear receptor subfamily 1 group I member 3 (Homo sapiens)
# Protocol summary: Activation of human CAR LBD expressed in human HepG2 cells at 30 uM incubated for 24 hrs by dual luciferase reporter assay relative to CITCO
# Format: cell-based
# Conditions used: hepg2, 24 h

{"columns": ["Test smiles", "Activity, %"],
 "data": [
  ["O=[N+]([O-])c1cccc(-c2nc3ccccc3c(=S)[nH]2)c1", 1],
  ["COc1nc(-c2cccc(F)c2)nc2ccccc12", -5],
  ["Oc1nc(-c2ccc(F)cc2)nc2ccccc12", -6],
  ["COc1ccc(-c2nc(O)c3ccccc3n2)cc1OC", 3],
  ["COc1nc(-c2cccc([N+](=O)[O-])c2)nc2ccccc12", -3],
  ["S=c1[nH]c(-c2cccc(Cl)c2)nc2ccccc12", 6],
  ["CC(C)(C)c1ccc(-c2nc3ccccc3c(=O)[nH]2)cc1", -5],
  ["COc1ccc(-c2nc3ccccc3c(=O)[nH]2)cc1", 3],
  ["O=c1[nH]c(-c2ccc3c(c2)OCO3)nc2ccccc12", -2],
  ["O=c1[nH]c(-c2ccc(Br)cc2)nc2ccccc12", 3],
  ["COc1ccc(-c2nc3ccccc3c(=O)n2C)cc1OC", -6],
  ["O=c1[nH]c(-c2ccc(C(F)(F)F)cc2)nc2ccccc12", -8],
  ["COc1ccc(-c2nc3ccccc3c(=S)[nH]2)cc1OC", -4],
  ["Cc1cccc(-c2nc3ccccc3c(=O)n2C)c1", -3],
  ["Cn1c(-c2ccc(OC(F)(F)F)cc2)nc2ccccc2c1=O", -8],
  ["O=c1[nH]c(-c2ccc(Cl)c(Cl)c2)nc2ccccc12", -6],
  ["Cn1c(-c2ccc(F)cc2)nc2ccccc2c1=O", -5],
  ["Cc1cccc(-c2nc(O)c3ccccc3n2)c1", 5],
  ["COc1nc(-c2ccc(OC(F)(F)F)cc2)nc2ccccc12", -3],
  ["CC(C)(C)c1ccc(-c2nc3ccccc3c(=S)[nH]2)cc1", 1]
]}

Data origin: ChEMBL document CHEMBL5625179
